assayed target: PPARγ (Homo sapiens, UniProt P37231)
Construct: PPARγ KdApp; other: HeLN cells stably transfected with Gal-hPPARγ and luciferase reporter; KdApp in nM (PPARγ receptors), compounds according to the present invention; Either is a handle for the test and no part of the key
Sequence (P37231 238-505 limits assumed): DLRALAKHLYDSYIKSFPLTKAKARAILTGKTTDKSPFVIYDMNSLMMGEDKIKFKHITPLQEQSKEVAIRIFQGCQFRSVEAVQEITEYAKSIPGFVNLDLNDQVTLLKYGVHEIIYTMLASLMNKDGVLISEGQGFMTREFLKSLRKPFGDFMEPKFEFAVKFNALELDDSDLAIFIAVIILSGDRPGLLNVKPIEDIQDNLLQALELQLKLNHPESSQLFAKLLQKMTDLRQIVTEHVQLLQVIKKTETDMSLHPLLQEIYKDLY
method description: Crossed-curve PPAR transactivation assay (PPARγ)
Assay type: cell-based
test conditions: HeLN cells stably transfected with Gal-hPPARγ and luciferase reporter; crossed curves vs reference agonist, Schild regression; read-out: PPARγ KdApp
reported endpoint: pKd
To interpret pKd, take it as minus log10 of a concentration measured in moles per litre.

Recorded pKd of C=CCO[C@@H](Cc1ccc(-c2cccc(N(C)C(=O)NCCCCCCC)c2)cc1)C(=O)O [Example 6] , please. 11.52

Recorded pKd of CCCCCCCNC(=O)N(C)c1cccc(-c2ccc(C[C@H](OCCC)C(=O)O)cc2)c1 [Example 4] , please. 10.60

Recorded pKd of CCCCCNC(=O)N(C)c1cccc(-c2ccc(C[C@H](OCC)C(=O)O)cc2)c1 [Example 2] , please. 10.52

Recorded pKd of CCCCCCCNC(=O)N(C)c1cccc(-c2ccc(C[C@H](OCc3ccccc3)C(=O)O)cc2)c1 [Example 5] , please. 10.52
